- Tested on: SH-SY-5Y Cells
- assayRemarks: MTS toxicity assay in SHSY5Y cells
- Format: cell-based, human
- studyConditions: Dose 20 uM
Each entry below carries its recorded APP Toxicity SH-SY-5Y Cells (MTS assay).
measureName: APP Toxicity SH-SY-5Y Cells (MTS assay) (% vehicle control)

1. COC(=O)NCCC1C(=O)N(Cc2ccccc2)c2ccc(OC)cc21 (stereo not shown) :: 93.5
2. COc1ccc2c(c1)C(C)C(=O)N2C (stereo not shown) :: 101.95
3. C=CCO[C@H](c1ccnc2ccccc12)C1CC2CC[N+]1(Cc1c3ccccc3cc3ccccc13)CC2C=C.[Br-] (stereo partly shown) :: 100
4. COc1ccc2c(c1)C1(C)CCSC1N2C (stereo not shown) :: 95.9
5. CN1CC[C@@]2(C)c3cc(O)ccc3N(C)C2NC1=O (single isomer, unassigned; (-)) :: 33.33
6. C/N=C(\C)c1cccc(OC)c1 :: 100.4
7. COc1ccc2c(c1)[C@]1(C)CCN(C)C1N2Cc1ccccc1 (stereo partly shown) [MES 9242] :: 80.95
8. Clc1ccc(C2CC3CCC2N3)cn1 (stereo not shown) :: 98.95
9. COc1ccc2c(c1)C(O)(c1ccccc1)C(=O)N2C (stereo not shown) :: 102.7
10. COc1ccc2c(c1)[C@@]1(C)CCN(Cc3ccccc3)C1N2Cc1ccccc1 (stereo partly shown) :: 99.4
11. CC(Br)C(=O)N(Cc1ccccc1)c1ccc(O)cc1 (stereo not shown) :: 106
12. COc1ccc2c(c1)[C@@]1(C)CC[N+](C)(C)C1N2Cc1ccccc1.[I-] (stereo partly shown) :: 99.3
13. COc1ccc2c(c1)[C@@]1(C)CCN(C)C1N2C (single isomer, unassigned; (+)) [MES 9295, (+)-O-Methyleseroline] :: 99.85
14. CN1CC[C@@]2(C)c3cc(O)ccc3N(Cc3ccccc3)C12 (stereo partly shown) :: 76.3
15. COc1ccc2c(c1)[C@]1(C)CCOC1N2C (stereo partly shown) :: 96.05
16. CN1CC[C@@]2(C)C3=CC(=O)C(=O)C=C3N(C)C12 (stereo partly shown) :: 66.5
17. CN1CC[C@]2(C)c3cc(O)ccc3N(C)C12 (stereo partly shown) :: 13.83
18. C[C@@]12CCN(Cc3ccccc3)C1Nc1ccc(O)cc12 (stereo partly shown) :: 38.63
19. COc1ccc2c(c1)[C@]1(C)CCNC1N2 (stereo partly shown) :: 99

---

- Test system: secreted APP
- assayRemarks: ELISA for secreted APP in SHSY5Y cells
- Assay type: cell-based, human
- studyConditions: Dose 0.25 uM, 16 hours
- Description: An enzyme-linked immunosorbent assay was developed to detect secreted APP in SHSY5Y cells, a human neuroblastoma cell line. The purpose of the screen was to discover small molecules that inhibit APP protein synthesis in SHSY5Y cells. […] Enzyme activity was assessed by incubation with […] TMB substrate solution (Moss no. TMB-US) for 20 minutes. […] Optical density was read at 450 nm on Wallac Victor2 plate reader. […] Of the 144 MES compounds screened, 12 inhibited secreted APP as determined by ELISA. […]
Each entry below carries its recorded APP Secretion by SH-SY-5Y Cells.
measureName: APP Secretion by SH-SY-5Y Cells (% vehicle control)

1) CNC(C)c1cccc(OC)c1 (stereo not shown) :: 87.95
2) Cc1cc2c(cc1O)[C@]1(C)CCN(C)C1N2C (stereo partly shown) :: 97.43
3) C[C@]12CCN(Cc3ccccc3)C1N(Cc1ccccc1)c1ccc(O)cc12 (stereo partly shown) :: 107.7
4) C[C@@]12CCN(Cc3ccccc3)C1Nc1ccc(O)cc12 (stereo partly shown) :: 98.4
5) CC(Br)C(=O)N(C)c1ccc(O)cc1 (stereo not shown) :: 99.5
6) CN1CC[C@@]2(C)c3cc(O)ccc3N(C)C2NC1=O (single isomer, unassigned; (-)) :: 107.4
7) COc1ccc2c(c1)c(CCN(C)C)cn2Cc1ccccc1 :: 101.6

Reference for the values: patent US8691864B2
